Value source: ChEMBL document CHEMBL4371011

Target: C-C chemokine receptor type 2 (Homo sapiens)
Assay: Displacement of [3H]-CCR2-RA-[R] from human TEV protease site linked CCR2b expressed in human U20S cell membranes co-expressing Gal4-VP16 transcription factor at 1 uM after 120 mins by scintillation spectrometry relative to control
Sequence (P41597 whole entry, looked up, the tested form may be a part): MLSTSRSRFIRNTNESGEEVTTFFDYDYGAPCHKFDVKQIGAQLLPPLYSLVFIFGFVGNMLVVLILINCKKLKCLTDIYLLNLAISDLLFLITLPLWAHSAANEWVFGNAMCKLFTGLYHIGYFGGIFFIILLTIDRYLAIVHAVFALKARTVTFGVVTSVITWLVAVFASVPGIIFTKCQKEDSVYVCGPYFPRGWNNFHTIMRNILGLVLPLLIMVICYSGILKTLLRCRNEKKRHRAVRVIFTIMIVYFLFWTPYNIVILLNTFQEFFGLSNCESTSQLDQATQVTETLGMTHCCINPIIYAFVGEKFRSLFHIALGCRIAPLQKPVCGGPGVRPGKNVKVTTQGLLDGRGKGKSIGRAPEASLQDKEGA
Quick reference: inhibition of the listed items.
assay_readout: inhibition (%)

- CC(=O)C1=C(O)C(=O)N(c2ccccc2)C1C1CCCCC1 (stereo not drawn): 45
- COc1cccc(C2C(C(C)=O)=C(O)C(=O)N2c2ccc(C)cc2)c1 (stereo not drawn): 0
- CC(=O)C1=C(O)C(=O)N(c2ccc(C)cc2)C1c1cccc(Cl)c1 (stereo not drawn): 19

====

Target: UniProtKB P32246
Sequence (P32246 whole entry): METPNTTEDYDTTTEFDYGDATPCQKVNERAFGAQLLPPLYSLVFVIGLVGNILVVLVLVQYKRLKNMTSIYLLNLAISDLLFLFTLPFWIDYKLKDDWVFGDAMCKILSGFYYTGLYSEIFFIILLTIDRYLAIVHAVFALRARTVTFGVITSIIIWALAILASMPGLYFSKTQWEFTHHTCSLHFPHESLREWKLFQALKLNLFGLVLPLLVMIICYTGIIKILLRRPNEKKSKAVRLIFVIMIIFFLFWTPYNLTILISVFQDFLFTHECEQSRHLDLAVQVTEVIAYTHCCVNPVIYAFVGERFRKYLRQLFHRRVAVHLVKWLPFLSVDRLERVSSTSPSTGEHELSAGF
Test: Antagonist activity at human TEV protease site linked CCR1 expressed in human U20S cell membranes co-expressing Gal4-VP16 transcription factor assessed as reduction in CCL3-induced G-protein activation preincubated for 30 mins in presence of CCL3 followed by incubation of 90 mins by [35S]GTPgammaS binding assay
Format: functional
Settings: read-out: IC50
assay_readout: IC50 (µM)

* O=C(C1=C(O)C(=O)N(c2ccc(Br)cc2F)C1c1cccc(Br)c1)C1CC1 (centres undefined) | 8.64
* CC(=O)C1=C(O)C(=O)N(c2ccc(Br)cc2F)C1C1CCCCC1 (centres undefined) | 0.59
* CC(=O)C1=C(O)C(=O)N(c2ccc(Cl)c(C)c2)C1C1CCCCC1 (centres undefined) | 1.94
* O=C(C1=C(O)C(=O)N(c2ccc(Br)cc2F)C1C1CCCCC1)C1CC1 (centres undefined) | 0.95

====

Biological target: C-C chemokine receptor type 2 (Homo sapiens)
Assay: Antagonist activity at human TEV protease site linked CCR2b expressed in human U20S cell membranes co-expressing Gal4-VP16 transcription factor assessed as reduction in CCL2-induced G-protein activation preincubated for 30 mins in presence of CCL2 followed by incubation of 90 mins by [35S]GTPgammaS binding assay
Assay type: functional
Conditions: read-out: IC50
Sequence (P41597 whole entry, the tested form may be a part): as the sequence (P41597 whole entry, looked up, the tested form may be a part) above
assay_readout: IC50 (nM)

- O=C(C1=C(O)C(=O)N(c2ccc(Br)cc2F)C1c1cccc(Br)c1)C1CC1 (centres undefined): 8770
- CC(=O)C1=C(O)C(=O)N(c2ccc(Cl)c(C)c2)C1C1CCCCC1 (centres undefined): 40
- CC(=O)C1=C(O)C(=O)N(c2ccc(Br)cc2F)C1C1CCCCC1 (centres undefined): 30
- O=C(C1=C(O)C(=O)N(c2ccc(Br)cc2F)C1C1CCCCC1)C1CC1 (centres undefined): 330

====

Molecular target: C-C chemokine receptor type 2 (Homo sapiens)
Experiment: Displacement of [3H]-CCR2-RA-[R] from human TEV protease site linked CCR2b expressed in human U20S cell membranes co-expressing Gal4-VP16 transcription factor at 1 uM after 120 mins by scintillation spectrometry relative to control
assay_readout: inhibition (%)

- COc1ccc(C2C(C(C)=O)=C(O)C(=O)N2c2ccc(C)cc2)cc1 (stereo not given): 5
- CC(=O)C1=C(O)C(=O)N(c2cccc(F)c2)C1C1CCCCC1 (stereo not given): 47
- CC(=O)C1=C(O)C(=O)N(c2ccc(C)cc2)C1c1cccc(Br)c1 (stereo not given): 19
- CCOC(=O)C1=C(O)C(=O)N(c2ccc(C)cc2)C1C1CCCCC1 (stereo not given): 31
- CC(=O)C1=C(O)C(=O)N(c2ccc(C)cc2)C1c1ccc(C)cc1 (stereo not given): 36
- Cc1ccc(N2C(=O)C(O)=C(C(=O)c3ccccc3)C2C2CCCCC2)cc1 (stereo not given): 37
- O=C(C1=C(O)C(=O)N(c2ccc(Br)cc2F)C1c1cccc(Br)c1)C1CC1 (stereo not given): 45
- Cc1ccc(N2C(=O)C(O)=C(C(=O)OC(C)C)C2C2CCCCC2)cc1 (stereo not given): 6
- CC(=O)C1=C(O)C(=O)N(c2ccc(C)cc2)C1c1ccccc1 (stereo not given): 39
- CC(=O)C1=C(O)C(=O)N(c2ccc(C)cc2)C1c1cccc(C)c1 (stereo not given): 11

====

Biological target: C-C chemokine receptor type 2 (Homo sapiens, UniProt P41597)
Assay: Displacement of [3H]-CCR2-RA-[R] from human TEV protease site linked CCR2b expressed in human U20S cell membranes co-expressing Gal4-VP16 transcription factor after 120 mins by scintillation spectrometry
Conditions: read-out: Ki
assay_readout: log10(Ki) (log10 of the value in nM)

• CC(=O)C1=C(O)C(=O)N(c2ccc(Cl)c(C)c2)C1C1CCCCC1 (stereo unspecified) = 0.95
• CC(=O)C1=C(O)C(=O)N(c2ccc(C)cc2)C1C1CCCCCC1 (stereo unspecified) = 1.98
• CC(=O)C1=C(O)C(=O)N(c2ccc(C)c(F)c2)C1C1CCCCC1 (stereo unspecified) = 1.76
• CC(=O)C1=C(O)C(=O)N(c2ccc(Br)cc2F)C1c1cccc(Br)c1 (stereo unspecified) = 2.33
• Cc1ccc(N2C(=O)C(O)=C(C(=O)C3CC3)C2C2CCCCC2)cc1 (stereo unspecified) = 2.20
• COc1ccc(N2C(=O)C(O)=C(C(C)=O)C2C2CCCCC2)cc1 (stereo unspecified) = 2.34
• CC(=O)C1=C(O)C(=O)N(c2ccc(C)cc2F)C1C1CCCCC1 (stereo unspecified) = 1.57
• CC(=O)C1=C(O)C(=O)N(c2ccc(C)cc2)C1C1CCCCC1 (stereo unspecified) = 1.91
• CC(=O)C1=C(O)C(=O)N(c2ccc(C)cc2)C1c1ccc(Cl)cc1 (stereo unspecified) = 2.32
• CCC(=O)C1=C(O)C(=O)N(c2ccc(C)cc2)C1C1CCCCC1 (stereo unspecified) = 2.02
• CC(=O)C1=C(O)C(=O)N(c2ccc(Br)cc2F)C1C1CCCCC1 (stereo unspecified) = 0.78

====

Target: C-C chemokine receptor type 2 (Homo sapiens, UniProt P41597)
Assay: Displacement of [3H]-CCR2-RA-[R] from human TEV protease site linked CCR2b expressed in human U20S cell membranes co-expressing Gal4-VP16 transcription factor after 120 mins by scintillation spectrometry
Conditions: read-out: pKi (converted)
assay_readout: log10 Ki (log10 of the value in nM)

* CCc1ccc(N2C(=O)C(O)=C(C(C)=O)C2C2CCCCC2)cc1 (stereo not drawn) | 1.81
* CC(=O)C1=C(O)C(=O)N(c2ccc(Cl)c(C)c2)C1C1CCCCC1 (stereo not drawn) | 0.91
* CC(=O)C1=C(O)C(=O)N(c2cccc(C(F)(F)F)c2)C1C1CCCCC1 (stereo not drawn) | 2.46
* CCCCC(=O)C1=C(O)C(=O)N(c2ccc(C)cc2)C1C1CCCCC1 (stereo not drawn) | 2.19
* Cc1ccc(N2C(=O)C(O)=C(C(=O)C(C)(C)C)C2C2CCCCC2)cc1 (stereo not drawn) | 2.19
* CCCC(=O)C1=C(O)C(=O)N(c2ccc(C)cc2)C1C1CCCCC1 (stereo not drawn) | 2.14
* COc1ccc(N2C(=O)C(O)=C(C(C)=O)C2C2CCCCC2)cc1 (stereo not drawn) | 2.33
* CC(=O)C1=C(O)C(=O)N(c2ccc(C)cc2)C1C1CCCCCCC1 (stereo not drawn) | 2.21

====

Target: UniProtKB P32246
Assay: Antagonist activity at human TEV protease site linked CCR1 expressed in human U20S cell membranes co-expressing Gal4-VP16 transcription factor assessed as reduction in CCL3-induced G-protein activation preincubated for 30 mins in presence of CCL3 followed by incubation of 90 mins by [35S]GTPgammaS binding assay
Assay type: functional
Conditions: read-out: pIC50 (converted)
Below, each entry is listed alongside its reported IC50.
assay_readout: IC50

- O=C(C1=C(O)C(=O)N(c2ccc(Br)cc2F)C1c1cccc(Br)c1)C1CC1 (centres undefined): 8510 nM
- O=C(C1=C(O)C(=O)N(c2ccc(Br)cc2F)C1C1CCCCC1)C1CC1 (centres undefined): 933 nM
- CC(=O)C1=C(O)C(=O)N(c2ccc(Cl)c(C)c2)C1C1CCCCC1 (centres undefined): 1860 nM
- CC(=O)C1=C(O)C(=O)N(c2ccc(Br)cc2F)C1C1CCCCC1 (centres undefined): 550 nM

====

Ki listing for selected molecules.
Biological target: UniProt:P41597
Experiment: Displacement of [3H]-CCR2-RA-[R] from human TEV protease site linked CCR2b expressed in human U20S cell membranes co-expressing Gal4-VP16 transcription factor after 120 mins by scintillation spectrometry
Settings: read-out: Ki
assay_readout: Ki (nM)

- Cc1ccc(N2C(=O)C(O)=C(C(=O)C(C)C)C2C2CCCCC2)cc1 (stereo unspecified): 316
- CC(=O)C1=C(O)C(=O)N(c2cccc(C)c2)C1C1CCCCC1 (stereo unspecified): 265
- CC(=O)C1=C(O)C(=O)N(c2cccc(Cl)c2)C1C1CCCCC1 (stereo unspecified): 239
- CCc1ccc(N2C(=O)C(O)=C(C(C)=O)C2C2CCCCC2)cc1 (stereo unspecified): 66
- CC(=O)C1=C(O)C(=O)N(c2ccc(C)cc2)C1C1CCCCCCC1 (stereo unspecified): 170
- CCCC(=O)C1=C(O)C(=O)N(c2ccc(C)cc2)C1C1CCCCC1 (stereo unspecified): 144
- CC(=O)C1=C(O)C(=O)N(c2ccc(Cl)cc2)C1C1CCCCC1 (stereo unspecified): 19
- CC(=O)C1=C(O)C(=O)N(c2ccc(C)cc2)C1c1ccc(Br)cc1 (stereo unspecified): 214
- CC(=O)C1=C(O)C(=O)N(c2ccc(C(F)(F)F)cc2)C1C1CCCCC1 (stereo unspecified): 92
- CC(=O)C1=C(O)C(=O)N(c2cccc(C(F)(F)F)c2)C1C1CCCCC1 (stereo unspecified): 305
- CC(=O)C1=C(O)C(=O)N(c2ccc(Br)cc2)C1C1CCCCC1 (stereo unspecified): 17
- CC(=O)C1=C(O)C(=O)N(c2ccc(C)c(C)c2)C1C1CCCCC1 (stereo unspecified): 18
- O=C(C1=C(O)C(=O)N(c2ccc(Br)cc2F)C1C1CCCCC1)C1CC1 (stereo unspecified): 15
- Cc1ccc(N2C(=O)C(O)=C(C(=O)C(C)(C)C)C2C2CCCCC2)cc1 (stereo unspecified): 158
- CCCCC(=O)C1=C(O)C(=O)N(c2ccc(C)cc2)C1C1CCCCC1 (stereo unspecified): 158
- O=C(C1=C(O)C(=O)N(c2ccc(Br)cc2F)C1C1CCCCC1)c1ccccc1 (stereo unspecified): 66
